molecular target: HIV-1 Env of isolate MGRM-A-008 (pseudovirus) (HIV-1); test: cell-based or functional assay
measurementName: IC50 (µg/mL), pseudovirus neutralization

IC50 (µg/mL), pseudovirus neutralization for PGT-127 (5145_B14) (antibody, V domains shown) VH: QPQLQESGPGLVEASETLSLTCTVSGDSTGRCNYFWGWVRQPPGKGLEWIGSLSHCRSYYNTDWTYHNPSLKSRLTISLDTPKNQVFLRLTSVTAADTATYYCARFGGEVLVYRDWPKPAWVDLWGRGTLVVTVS VL: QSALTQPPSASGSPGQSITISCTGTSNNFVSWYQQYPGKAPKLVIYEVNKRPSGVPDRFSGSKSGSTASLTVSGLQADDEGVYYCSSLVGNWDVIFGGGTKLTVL is > 50 µg/mL
